For each entry below, report its cell viability value.
Tested on: Vero E6
Test: cell viability relative to DMSO; higher = less toxic
Conditions: 72 h; 1000 nM
Answers are plain numbers, in %.

Study these solved cases before continuing.
Entry under test: COc1ccc(C(=O)NCc2cccnc2)cc1C(=O)NCc1cccnc1 [picotamide] . Its cell viability was 98.7

Entry under test: CCN(CC)C(=O)Nc1ccc(OCC(O)CNC(C)(C)C)c(C(C)=O)c1 (stereo not drawn) [celiprolol] . Its cell viability was 106

Entry under test: CCOc1cn(-c2ccc(F)cc2C)nc1C(=O)Nc1ccc(Oc2ccnc3cc(OC)c(OC)cc23)c(F)c1 [LDC1267] . Its cell viability was 96.9

Batch request: cell viability per item, same order as input.
1. CC(C)[N+](C)(CCOC(=O)C1c2ccccc2Oc2ccccc21)C(C)C [propantheline]
2. COc1ccc(C2=N[C@@H](c3ccc(Cl)cc3)[C@@H](c3ccc(Cl)cc3)N2C(=O)N2CCNC(=O)C2)c(OC(C)C)c1 [nutlin-3]
3. Cc1[nH]c(/C=C2\C(=O)Nc3ccc(F)cc32)c(C)c1C(=O)NCCN1CCCC1 [toceranib]

stdout:
1: 104; 2: 97.5; 3: 106

Batch request: cell viability per item, same order as input.
1. Nc1ncnc2c1c(-c1cnc3[nH]ccc3c1)nn2C1CCCC1 [PP-121]
2. CCOc1ccc(S(=O)(=O)O)c2cccnc12 [actinoquinol]

stdout:
1: 73.7; 2: 95.1

---

For each entry below, report its relative viability EC50 value.
System: Caco-2
Assay: relative viability EC50 (midpoint between 100% and the lowest measured viability); higher = less toxic
Conditions: 72 h

Study these solved cases before continuing.
Entry under test: NC(=O)CN1CC(c2ccccc2)CC1=O (configuration not stated) . Its relative viability EC50 was > 10 µM

Entry under test: N=C(N)NCCC[C@H](NC(=O)c1sccc1NS(=O)(=O)c1cccc2nsnc12)C(=O)O . Its relative viability EC50 was > 10 µM

Entry under test: O=C(O)c1ccc(N2N=C(Cc3ccccc3)/C(=C\c3ccc(-c4ccccc4F)o3)C2=O)cc1 . Its relative viability EC50 was > 10 µM

Entry under test: CO[C@H]1/C=C/O[C@@]2(C)Oc3c(C)c(O)c4c(O)c(c(/C=N/N5CCN(C6CCCC6)CC5)c(O)c4c3C2=O)NC(=O)/C(C)=C\C=C\[C@H](C)[C@H](O)[C@@H](C)[C@@H](O)[C@@H](C)[C@H](OC(C)=O)[C@@H]1C . Its relative viability EC50 was > 10 µM

Entry under test: CO/N=C1\CN(c2nc3c(cc2F)c(=O)c(C(=O)O)cn3C2CC2)CC1CN (configuration not stated) . Its relative viability EC50 was > 10 µM

Batch request: relative viability EC50 per item, same order as input.
1. Cc1cc2c(C(C)C)c(O)c(O)c(C=O)c2c(O)c1-c1c(C)cc2c(C(C)C)c(O)c(O)c(C=O)c2c1O
2. c1cc(-c2cnn3cc(-c4ccc(N5CCNCC5)cc4)cnc23)c2cccnc2c1

stdout:
1. 2.41 µM
2. 2.67 µM

---

For each entry below, report its cell viability value.
System: Vero E6
Assay: cell viability relative to DMSO; higher = less toxic
Settings: 72 h; 1000 nM
One number for each entry, in %.

Batch request: cell viability per item, same order as input.
1. CC(C)NCC(O)COc1cccc2[nH]c3ccccc3c12 (centres undefined)
2. COc1cc(C(=O)NCCCCCC(=O)O)cc(OC)c1OC
3. CCCN(CCC)C(=O)C1=Cc2ccc(-c3ccc(C(=O)N4CCCC4)cc3)cc2N=C(N)C1
4. N#CC[C@@H](C1CCCC1)n1cc(-c2ncnc3[nH]ccc23)cn1 [ruxolitinib-(S)]
5. COc1cc2c(cc1OC)[C@H](C)NCC2 [Isoquinoline,-6,7-dimethoxy-1-methyl-1,2,3,4-tetrahydro,]
6. COC(=O)[C@H](NC(=O)c1cc(-c2ccccc2)nc2ccccc12)c1ccccc1
7. OCc1ccccc1O

stdout:
1: 100; 2: 101; 3: 99.2; 4: 96.5; 5: 96.5; 6: 92.7; 7: 105

Batch request: cell viability per item, same order as input.
1. Oc1ccc(Cl)c2c1CCC2
2. CC(=O)NS(=O)(=O)c1ccc(NC(=O)c2ccccc2C(=O)O)cc1 [phthalylsulfacetamide]

stdout:
1: 96.4; 2: 104

---

System: HepG2
Assay: cell viability relative to DMSO; higher = less toxic
Conditions: 72 h; 10000 nM
For each entry below, report its cell viability value.
Give bare numbers, in %.

Entry under test: CCCN1CCCC[C@H]1C(=O)Nc1c(C)cccc1C . Its cell viability was 99.4

Batch request: cell viability per item, same order as input.
1. CCCCc1nc(-c2ccc(OCCCN(CC)CC)cc2)cn1-c1ccc(Oc2ccc(Cl)cc2)cc1
2. Cc1ccc(C(=O)Nc2ccc(CN3CCN(C)CC3)c(C(F)(F)F)c2)cc1C#Cc1cnc2[nH]ncc2c1
3. C(#CCN1CCCC1)CN1CCCC1

stdout:
1. 0.1
2. 0.4
3. 93.6

Batch request: cell viability per item, same order as input.
1. CN(C)C/C=C/C(=O)Nc1ccc(C(=O)Nc2cccc(Nc3ncc(Cl)c(-c4c[nH]c5ccccc45)n3)c2)cc1
2. CC(C)CCNc1ncccc1C(=O)N1CCN(Cc2ccccc2)CC1
3. CC(C)(Cc1ccc2ccccc2c1)NC[C@@H](O)COc1cccc(Cl)c1C#N

stdout:
1: 4.8; 2: 103; 3: 53.9

Batch request: cell viability per item, same order as input.
1. CC(C)OC(=O)[C@H](C)N[P@](=O)(CO[C@H](C)Cn1cnc2c(N)ncnc21)Oc1ccccc1 [tenofovir-alafenamide]
2. N#C/C(=C\c1ccc(O)c(O)c1)C(=O)NCCCc1ccccc1

stdout:
1. 44.6
2. 74.7

---

Tested on: A549-ACE2
Experiment: drug-induced phospholipidosis relative to tamoxifen; higher = more phospholipidosis
Conditions: 0.833333 µM; 24 h
For each entry below, report its drug-induced phospholipidosis value.

Entry under test: COC[C@H](NC(=O)c1cnc(C)s1)C(=O)N[C@@H](COC)C(=O)N[C@@H](Cc1ccccc1)C(=O)[C@@]1(C)CO1 . Its drug-induced phospholipidosis was -14.9%

Batch request: drug-induced phospholipidosis per item, same order as input.
1. C[C@@H]1CN(CCCn2c3ccccc3c3ccccc32)C[C@H](C)N1
2. O=c1cc(N2CCOCC2)oc2c(-c3cccc4c3sc3ccccc34)cccc12

stdout:
1: 10.3%; 2: -8.02%

Batch request: drug-induced phospholipidosis per item, same order as input.
1. COCC(=O)O[C@]1(CCN(C)CCCc2nc3ccccc3[nH]2)CCc2cc(F)ccc2[C@@H]1C(C)C
2. CCOc1cn(-c2ccc(F)cc2C)nc1C(=O)Nc1ccc(Oc2ccnc3cc(OC)c(OC)cc23)c(F)c1

stdout:
1. 5.28%
2. 2.17%

---

For each entry below, report its cell viability value.
Tested on: Calu-3
Test: cell viability relative to DMSO; higher = less toxic
Details: 72 h; 1 nM
Reply with the number, then its unit.

Entry under test: CC[N+](C)(CC)CC(=O)Nc1c(C)cccc1C [N-methyllidocaine-iodide] . Its cell viability was 98.2%

Entry under test: CC(C)NC(=N)NC(=N)Nc1ccc(Cl)cc1 [proguanil] . Its cell viability was 101%

Entry under test: CC(C)(Oc1ccc(CCNC(=O)c2ccc(Cl)cc2)cc1)C(=O)O [bezafibrate] . Its cell viability was 110%

Entry under test: COc1cc(N2CCC(N3CCN(C)CC3)CC2)ccc1Nc1ncc(Cl)c(Nc2ccccc2P(C)(C)=O)n1 [brigatinib] . Its cell viability was 105%

Continuing:
Entry under test: Oc1ccc(/C=C/c2cc(O)cc(O)c2)cc1 [resveratrol] . Its cell viability was 106%

---

System: Vero E6
Assay: cell viability relative to DMSO; higher = less toxic
Conditions: 72 h; 100 nM
For each entry below, report its cell viability value.
Give bare numbers, in %.

Study these solved cases before continuing.
Bench note, Vero E6: entry O=C(Oc1ccccc1C(=O)O)c1ccccc1O [sasapyrine] , its cell viability = 102

Bench note, Vero E6: entry CN1C(C(=O)Nc2ccccn2)=C(O)c2ccccc2S1(=O)=O [piroxicam] , its cell viability = 94.4

Batch request: cell viability per item, same order as input.
1. Cc1onc(O)c1C[C@@H](N)C(=O)O (racemic) [AMPA-(RS)]
2. O=C(NC(Cc1cc(=O)[nH]c2ccccc12)C(=O)O)c1ccc(Cl)cc1 (stereo not drawn) [rebamipide]
3. Nc1ncnc2c1c(-c1cnc3[nH]ccc3c1)nn2C1CCCC1 [PP-121]
4. CC(C)(C)C(=O)OCC(=O)[C@H]1CC[C@H]2[C@@H]3CCC4=CC(=O)CC[C@]4(C)[C@H]3CC[C@]12C [desoxycorticosterone-pivalate]
5. O=C(CCCN1CCC(n2c(=O)[nH]c3ccccc32)CC1)c1ccc(F)cc1 [benperidol]
6. CN(C)C/C=C/C(=O)Nc1ccc(C(=O)Nc2cccc(Nc3ncc(Cl)c(-c4c[nH]c5ccccc45)n3)c2)cc1 [THZ1]

stdout:
1. 93.8
2. 97.6
3. 102
4. 101
5. 98
6. 99.4
